Measured values drawn from ChEMBL document CHEMBL3856275 for this set.

assayed.target: Procathepsin L (Homo sapiens)
Sequence (P07711 whole entry): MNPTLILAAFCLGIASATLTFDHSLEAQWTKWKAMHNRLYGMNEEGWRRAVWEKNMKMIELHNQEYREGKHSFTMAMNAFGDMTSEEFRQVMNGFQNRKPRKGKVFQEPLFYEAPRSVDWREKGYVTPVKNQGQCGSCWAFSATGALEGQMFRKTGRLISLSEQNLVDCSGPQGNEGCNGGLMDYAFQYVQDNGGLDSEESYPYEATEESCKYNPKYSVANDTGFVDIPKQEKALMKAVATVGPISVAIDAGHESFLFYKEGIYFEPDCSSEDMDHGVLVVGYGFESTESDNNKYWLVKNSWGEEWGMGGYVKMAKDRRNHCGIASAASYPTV
assay.remarks: Inhibition of human recombinant cathepsin L
endpoint.label: IC50

structure.string | endpoint.label | observed.value
Cn1c(=O)oc2ccc(-c3ccc(C[C@@H](C#N)NC(=O)[C@@H]4CNCCCO4)cc3)cc21 | IC50 | > 20 µM

---

In this section we review reported pIC50 values for a set of compounds.
assayed.target: Dipeptidyl peptidase 1 (Homo sapiens)
Sequence (P53634 25-134 limits assumed): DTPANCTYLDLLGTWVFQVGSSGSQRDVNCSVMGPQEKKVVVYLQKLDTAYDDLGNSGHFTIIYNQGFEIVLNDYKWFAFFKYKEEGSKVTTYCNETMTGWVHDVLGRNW
Sequence (P53634 231-394 limits assumed): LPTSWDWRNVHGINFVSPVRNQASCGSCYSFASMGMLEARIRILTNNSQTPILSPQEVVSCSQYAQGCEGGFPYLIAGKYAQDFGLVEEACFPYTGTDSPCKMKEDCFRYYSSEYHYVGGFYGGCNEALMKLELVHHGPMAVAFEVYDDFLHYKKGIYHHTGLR
Sequence (P53634 395-463 limits assumed): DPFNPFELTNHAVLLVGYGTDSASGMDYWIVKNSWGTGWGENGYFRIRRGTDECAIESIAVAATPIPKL
assay.remarks: Inhibition of human recombinant DPP1 using Gly-Arg-AMC as substrate preincubated for 30 mins followed by substrate addition by fluorometric assay
pIC50: −log10 of the molar value.

compound | qualifier.operator | pIC50
Cn1c(=O)cnc2ccc(-c3ccc(C[C@@H](C#N)NC(=O)[C@@H]4CNCCCO4)cc3)cc21 | = | 7.60
Cn1c(=O)ccc2ccc(-c3ccc(C[C@@H](C#N)NC(=O)[C@@H]4CNCCCO4)cc3)cc21 | = | 7.90
N#Cc1ccc(-c2ccc(C[C@@H](C#N)NC(=O)[C@H]3CNCCO3)cc2)cc1 | < | 5.00
N#Cc1ccc(-c2ccc(C[C@@H](C#N)NC(=O)C3CNCCCO3)cc2)cc1 (mixture of isomers) | = | 7.20
CN1C(=O)C(F)(F)c2ccc(-c3ccc(C[C@@H](C#N)NC(=O)[C@@H]4CNCCCO4)cc3)cc21 | = | 7.80
N#Cc1ccc(-c2ccc(C[C@@H](C#N)NC(=O)[C@@H]3CCC[C@@H]3N)cc2)cc1 | = | 6.00
N#Cc1ccc(-c2ccc(C[C@@H](C#N)NC(=O)[C@@H]3CCCCC[C@@H]3N)cc2)cc1 | = | 7.40
N#Cc1ccc(-c2ccc(C[C@@H](C#N)NC(=O)[C@@H]3CNCCCO3)cc2)cc1 | = | 7.40
N#Cc1ccc(-c2ccc(C[C@@H](C#N)NC(=O)C3CCCCNC3)cc2)cc1 (mixture of isomers) | = | 5.90
N#C[C@H](Cc1ccc(-c2ccc(C(F)(F)F)cc2)cc1)NC(=O)[C@@H]1CNCCCO1 | = | 7.40
N#Cc1cccc(-c2ccc(C[C@@H](C#N)NC(=O)C3CCCCC3N)cc2)c1 (stereo partly drawn) | = | 6.00
N#Cc1ccc(-c2ccc(C[C@@H](C#N)NC(=O)[C@H]3CCCC[C@@H]3N)cc2)cc1 | = | 6.30
N#C[C@H](Cc1ccc(-c2ncc(C(F)(F)F)cn2)cc1)NC(=O)[C@@H]1CNCCCO1 | = | 6.70
N#Cc1ccc(-c2ccc(C[C@@H](C#N)NC(=O)[C@@H]3CCCC[C@H]3N)cc2)cc1 | = | 6.50
N#Cc1ccc(-c2ccc(C[C@@H](C#N)NC(=O)[C@@H]3CNCCO3)cc2)cc1 | = | 6.40
N#Cc1ccc(-c2ccc(C[C@@H](C#N)NC(=O)[C@@H]3CCCNC3)cc2)cc1 | < | 5.00
N#Cc1ccc(-c2ccc(C[C@@H](C#N)NC(=O)[C@@H]3CCCC[C@@H]3N)cc2)cc1 | = | 7.40
Cc1cc(-c2ccc(C[C@@H](C#N)NC(=O)[C@@H]3CNCCCO3)cc2)cc2c1oc(=O)n2C | = | 8.00

---

assay.remarks: Oral bioavailability in Sprague-Dawley rat at 3 mg/kg
Type: ADME, organism-based
setup.conditions: in vivo
Listed here: items and their measured bioavailability.

compound | quantity.unit | bioavailability
Cn1c(=O)oc2ccc(-c3ccc(C[C@@H](C#N)NC(=O)[C@@H]4CNCCCO4)cc3)cc21 [BRENSOCATIB] | % | 30
CCn1c(=O)oc2ccc(-c3ccc(C[C@@H](C#N)NC(=O)[C@@H]4CNCCCO4)cc3)cc21 | % | 36
Cn1c(=O)sc2ccc(-c3ccc(C[C@@H](C#N)NC(=O)[C@@H]4CNCCCO4)cc3)cc21 | % | 26
N#C[C@H](Cc1ccc(-c2ccc3oc(=O)n(CC(F)F)c3c2)cc1)NC(=O)[C@@H]1CNCCCO1 | % | 29
Cc1cc(-c2ccc(C[C@@H](C#N)NC(=O)[C@@H]3CNCCCO3)cc2)cc2c1oc(=O)n2C | % | 24

---

assay.remarks: Protein binding in dog plasma at 10 uM after 6 hrs by LC-MS/MS method
Assay type: ADME, cell-free, Canis lupus familiaris
setup.conditions: read-out: PPB (converted)
endpoint.label: fraction unbound at 6 h, 10 µM

structure.string | endpoint.label | observed.value
CCn1c(=O)oc2ccc(-c3ccc(C[C@@H](C#N)NC(=O)[C@@H]4CNCCCO4)cc3)cc21 | fraction unbound at 6 h, 10 µM | 0.14
N#C[C@H](Cc1ccc(-c2ccc3oc(=O)n(CC(F)F)c3c2)cc1)NC(=O)[C@@H]1CNCCCO1 | fraction unbound at 6 h, 10 µM | 0.15
Cc1cc(-c2ccc(C[C@@H](C#N)NC(=O)[C@@H]3CNCCCO3)cc2)cc2c1oc(=O)n2C | fraction unbound at 6 h, 10 µM | 0.13
Cn1c(=O)oc2ccc(-c3ccc(C[C@@H](C#N)NC(=O)[C@@H]4CNCCCO4)cc3)cc21 | fraction unbound at 6 h, 10 µM | 0.3
N#Cc1ccc(-c2ccc(C[C@@H](C#N)NC(=O)[C@@H]3CNCCCO3)cc2)cc1 | fraction unbound at 6 h, 10 µM | 0.25

---

assay.remarks: Protein binding in rat plasma at 10 uM after 6 hrs by LC-MS/MS method
Assay type: ADME, cell-free
setup.conditions: read-out: PPB (converted)
Assign YES to entries whose fraction unbound at 6 h, 10 µM meets or exceeds 0.06; assign NO to the rest.

structure.string | label.class
CCn1c(=O)oc2ccc(-c3ccc(C[C@@H](C#N)NC(=O)[C@@H]4CNCCCO4)cc3)cc21 | YES
Cn1c(=O)sc2ccc(-c3ccc(C[C@@H](C#N)NC(=O)[C@@H]4CNCCCO4)cc3)cc21 | NO
N#Cc1ccc(-c2ccc(C[C@@H](C#N)NC(=O)[C@@H]3CCCCC[C@@H]3N)cc2)cc1 | YES
Cc1cc(-c2ccc(C[C@@H](C#N)NC(=O)[C@@H]3CNCCCO3)cc2)cc2c1oc(=O)n2C | NO
N#Cc1ccc(-c2ccc(C[C@@H](C#N)NC(=O)[C@@H]3CNCCCO3)cc2)cc1 | YES
N#Cc1ccc(-c2ccc(C[C@@H](C#N)NC(=O)[C@@H]3CCCC[C@@H]3N)cc2)cc1 | YES

---

assay.remarks: Intrinsic clearance in dog hepatocytes assessed per 10^6 cells at 1 uM after 10 to 90 mins by LC-MS/MS method
Assay type: ADME, cell-based, Canis lupus familiaris, Hepatocyte
Below, each entry is listed alongside its reported CLH.

structure.string | CLH
Cn1c(=O)sc2ccc(-c3ccc(C[C@@H](C#N)NC(=O)[C@@H]4CNCCCO4)cc3)cc21 | < 3.5 µL/min/10^6 cells
Cn1c(=O)oc2ccc(-c3ccc(C[C@@H](C#N)NC(=O)[C@@H]4CNCCCO4)cc3)cc21 | < 3.5 µL/min/10^6 cells
Cc1cc(-c2ccc(C[C@@H](C#N)NC(=O)[C@@H]3CNCCCO3)cc2)cc2c1oc(=O)n2C | < 3.5 µL/min/10^6 cells
CCn1c(=O)oc2ccc(-c3ccc(C[C@@H](C#N)NC(=O)[C@@H]4CNCCCO4)cc3)cc21 | < 3.5 µL/min/10^6 cells
N#Cc1ccc(-c2ccc(C[C@@H](C#N)NC(=O)[C@@H]3CNCCCO3)cc2)cc1 | < 4 µL/min/10^6 cells

---

assayed.target: Cathepsin B (Homo sapiens, UniProt P07858)
assay.remarks: Inhibition of human recombinant cathepsin B

structure.string | assayed.target | IC50
Cn1c(=O)oc2ccc(-c3ccc(C[C@@H](C#N)NC(=O)[C@@H]4CNCCCO4)cc3)cc21 | Cathepsin B (Homo sapiens, UniProt P07858) | > 20 µM

---

Listing of recorded Papp A→B at 1 h, 10 µM by entry.
assay.remarks: Apparent permeability across apical to basolateral side in human Caco2 cells at 10 uM after 1 hr by LC-MS method
setup.conditions: Caco-2

structure.string | Papp A→B at 1 h, 10 µM
Cn1c(=O)sc2ccc(-c3ccc(C[C@@H](C#N)NC(=O)[C@@H]4CNCCCO4)cc3)cc21 | 110 nm/s
Cn1c(=O)oc2ccc(-c3ccc(C[C@@H](C#N)NC(=O)[C@@H]4CNCCCO4)cc3)cc21 | 92 nm/s
N#Cc1ccc(-c2ccc(C[C@@H](C#N)NC(=O)[C@@H]3CCCCC[C@@H]3N)cc2)cc1 | 110 nm/s
N#Cc1ccc(-c2ccc(C[C@@H](C#N)NC(=O)[C@@H]3CCCC[C@@H]3N)cc2)cc1 | 110 nm/s
N#Cc1ccc(-c2ccc(C[C@@H](C#N)NC(=O)[C@@H]3CNCCCO3)cc2)cc1 | 190 nm/s
Cc1cc(-c2ccc(C[C@@H](C#N)NC(=O)[C@@H]3CNCCCO3)cc2)cc2c1oc(=O)n2C | 130 nm/s
N#C[C@H](Cc1ccc(-c2ccc3oc(=O)n(CC(F)F)c3c2)cc1)NC(=O)[C@@H]1CNCCCO1 | 80 nm/s
